- assayed system: Sushi domains (SD1/2) protein of the GABAB1a (GB1a) subunit, recombinant
- Sequence (Q9Z0U4 29-158): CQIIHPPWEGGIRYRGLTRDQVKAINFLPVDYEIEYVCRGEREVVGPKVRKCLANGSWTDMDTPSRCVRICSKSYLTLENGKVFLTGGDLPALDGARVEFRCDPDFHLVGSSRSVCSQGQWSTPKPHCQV
- method summary: FP competition
pKi: −log10 of the molar value. Non-standard residues stand in square brackets, D forms with d. NMeI = CC[C@H](C)[C@H](NC)C(=O)O
observed property: pKi

Past entries and their recorded results:
Ac-PWAIVWGPTVSRAD-NH2 :: 6.22
Ac-RRRRRRRRGGGGSEDDDWIDWYDSDDD-NH2 [R8-FL-16 (…)] :: 6.55
Ac-PWA[NMeI]VWGPTVSRED-NH2 (SMILES CC[C@H](C)[C@@H](C(=O)N[C@H](C(=O)N[C@@H](Cc1c[nH]c2ccccc12)C(=O)NCC(=O)N1CCC[C@H]1C(=O)N[C@H](C(=O)N[C@H](C(=O)N[C@@H](CO)C(=O)N[C@@H](CCCNC(=N)N)C(=O)N[C@@H](CCC(=O)O)C(=O)N[C@@H](CC(=O)O)C(N)=O)C(C)C)[C@@H](C)O)C(C)C)N(C)C(=O)[C@H](C)NC(=O)[C@H](Cc1c[nH]c2ccccc12)NC(=O)[C@@H]1CCCN1C(C)=O) [PWA(N-Me-I)…] :: 6.43

(1) Ac-EEDDSDVWWGGADTDY-NH2
(2) Ac-ED[dD]SDVWWGGADTD-NH2 [EDd…]
*Q* Which value of pKi is numerically greater: that of 1 or that of 2 ? To answer, give the label that identifies your chosen option.
*A* 1
